Every entry's value here was drawn from BindingDB's records for doi:10.1021/jm2006222.

biological target: 3-phosphoinositide-dependent protein kinase 1 (Homo sapiens); assay: Inhibition of recombinant PDK1
experimental_readout: IC50

Let me know recorded IC50 for `CCN1CCN(c2ccc(Nc3cc(N(C)C(=O)Nc4c(Cl)c(OC)cc(OC)c4Cl)ncn3)cc2)CC1` , thanks.
> 10 µM
